This collection of values is drawn from patent US20260365670A1.

TARGET: EGFR (d746-750 C797S) (Homo sapiens, UniProt P00533, C797S/DEL746-750)
Construct: purchased signalchem
Sequence (P00533 with tags, fused parts or gaps DEL746-750/C797S limits assumed): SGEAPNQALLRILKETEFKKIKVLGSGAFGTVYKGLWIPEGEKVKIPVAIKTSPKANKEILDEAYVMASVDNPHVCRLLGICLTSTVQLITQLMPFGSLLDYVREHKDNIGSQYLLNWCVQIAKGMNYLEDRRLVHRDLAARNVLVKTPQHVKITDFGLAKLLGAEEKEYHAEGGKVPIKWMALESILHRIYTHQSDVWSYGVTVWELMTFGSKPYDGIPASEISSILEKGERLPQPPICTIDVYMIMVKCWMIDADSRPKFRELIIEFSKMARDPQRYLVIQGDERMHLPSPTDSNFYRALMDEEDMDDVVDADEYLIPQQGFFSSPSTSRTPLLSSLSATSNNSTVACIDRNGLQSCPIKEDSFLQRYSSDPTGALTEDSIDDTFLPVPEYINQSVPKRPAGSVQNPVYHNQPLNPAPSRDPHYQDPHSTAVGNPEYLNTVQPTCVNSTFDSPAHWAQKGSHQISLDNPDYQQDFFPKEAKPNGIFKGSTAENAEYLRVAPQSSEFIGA
ASSAY_SUMMARY: Inhibition of EGFR (d746-750 C797S) biochemical enzymatic activity (HTRF)
DETAILS: EGFR Del19-C797S, 1 mM ATP, 1 h, room temperature, read-out: IC50 (nM) @Del19-C797S
VALUE_TYPE: IC50 (nM)

Some solved cases for reference:
{"MOLECULE": "Cn1ncc2c1OCCN1CC3CCC(CC3)(C1)n1c(nc3ccccc31)NC(=O)c1cc-2c(=O)n(C)c1", "IC50 [nM]": 120}
{"MOLECULE": "CCn1cc2cc(c1=O)-c1cnn(C)c1OCCC[C@@H](C)Cn1c(nc3ccc(N4CCN(C)CC4)cc31)NC2=O", "IC50 [nM]": 63}
{"MOLECULE": "Cn1ncc2c1OCCN1CCCC(C)(C1)n1c(nc3ccc(N4CCOCC4)cc31)NC(=O)c1cc-2c(=O)n(C)c1 (stereo not drawn)", "IC50 [nM]": 173}
{"MOLECULE": "Cc1cc2cc(n1)-c1cnn(C)c1OCCN1CCCCC(C1)n1c(nc3ccccc31)NC2=O (stereo not drawn)", "IC50 [nM]": 243}

I: CN(C)C1CN(c2ccc3nc4n(c3c2)C23CCC(CN(CCOc5c(cnn5C)-c5cc(cn(C)c5=O)C(=O)N4)C2)C3)CC1F (single isomer, unassigned) [Example A84C]
II: CN(C)CCC1CN(c2ccc3nc4n(c3c2)C23CCC(CN(CCOc5c(cnn5C)-c5cc(cn(C)c5=O)C(=O)N4)C2)C3)C1 (single isomer, unassigned) [Example A95A]
Query: Which gives the smaller IC50 number: I or II ? Kindly give the label for the entry you pick.
Response: I

====

TARGET: EGFR L858R (Homo sapiens, UniProt P00533, L858R)
Construct: purchased Carna Bio
Sequence (P00533 25-1210 L858R): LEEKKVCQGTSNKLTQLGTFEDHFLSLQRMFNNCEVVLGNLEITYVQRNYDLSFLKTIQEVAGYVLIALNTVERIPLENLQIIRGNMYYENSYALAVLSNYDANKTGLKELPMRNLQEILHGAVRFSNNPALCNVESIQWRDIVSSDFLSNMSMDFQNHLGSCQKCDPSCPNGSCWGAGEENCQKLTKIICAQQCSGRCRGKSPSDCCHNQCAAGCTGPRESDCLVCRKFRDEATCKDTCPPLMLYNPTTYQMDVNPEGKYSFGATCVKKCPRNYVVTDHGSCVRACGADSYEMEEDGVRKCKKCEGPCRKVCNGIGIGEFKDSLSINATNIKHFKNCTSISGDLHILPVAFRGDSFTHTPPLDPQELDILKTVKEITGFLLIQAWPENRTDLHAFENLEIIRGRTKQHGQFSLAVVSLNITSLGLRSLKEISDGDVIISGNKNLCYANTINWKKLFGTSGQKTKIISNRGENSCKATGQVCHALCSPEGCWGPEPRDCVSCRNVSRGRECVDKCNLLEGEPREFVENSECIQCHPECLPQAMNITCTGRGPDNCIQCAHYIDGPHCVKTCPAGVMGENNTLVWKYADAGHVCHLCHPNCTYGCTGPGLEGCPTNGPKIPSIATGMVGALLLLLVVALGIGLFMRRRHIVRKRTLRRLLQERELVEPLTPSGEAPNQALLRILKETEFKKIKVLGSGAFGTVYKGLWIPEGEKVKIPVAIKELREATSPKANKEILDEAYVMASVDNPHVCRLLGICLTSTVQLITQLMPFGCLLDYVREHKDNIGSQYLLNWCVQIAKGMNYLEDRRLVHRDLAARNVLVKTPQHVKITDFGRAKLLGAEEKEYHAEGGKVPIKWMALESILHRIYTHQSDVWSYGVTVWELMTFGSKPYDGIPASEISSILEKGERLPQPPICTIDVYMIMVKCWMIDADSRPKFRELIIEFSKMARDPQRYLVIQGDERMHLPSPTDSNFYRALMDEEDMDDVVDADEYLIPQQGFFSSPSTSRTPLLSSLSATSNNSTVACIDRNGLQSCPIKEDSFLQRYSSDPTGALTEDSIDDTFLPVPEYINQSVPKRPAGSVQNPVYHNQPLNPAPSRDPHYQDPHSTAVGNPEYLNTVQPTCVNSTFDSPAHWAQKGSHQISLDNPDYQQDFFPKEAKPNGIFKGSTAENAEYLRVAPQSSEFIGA
ASSAY_SUMMARY: Inhibition of EGFR L858R biochemical enzymatic activity (HTRF)
DETAILS: 1 mM ATP, 1 h, room temperature, read-out: IC50 (nM) @L858R
VALUE_TYPE: IC50 (nM)

P: CN1CCC2(CCN(c3ccc4nc5n(c4c3)C34CCC(CN(CCOc6c(cnn6C)-c6cc(cn(C)c6=O)C(=O)N5)C3)C4)CC2)C1 (single isomer, unassigned) [Example A82B]
Q: CN1C2CC1CN(c1ccc3nc4n(c3c1)C13CCC(CN(CCOc5c(cnn5C)-c5cc(cn(C)c5=O)C(=O)N4)C1)C3)C2 (single isomer, unassigned) [Example A98B]
R: CC(C)N1CCN(c2ccc3nc4n(c3c2)C23CCC(CN(CCOc5c(cnn5C)-c5cc(cn(C)c5=O)C(=O)N4)C2)C3)CC1 (single isomer, unassigned) [Example A108A]
Query: With the 3 compounds above, produce a list ordered by ascending IC50. Please list each label once, in the requested order.
Response: P, Q, R

====

TARGET: EGFR (C797S L858R) (Homo sapiens, UniProt P00533, C797S/L858R)
Construct: purchased signalchem
Sequence (P00533 25-1210 C797S/L858R): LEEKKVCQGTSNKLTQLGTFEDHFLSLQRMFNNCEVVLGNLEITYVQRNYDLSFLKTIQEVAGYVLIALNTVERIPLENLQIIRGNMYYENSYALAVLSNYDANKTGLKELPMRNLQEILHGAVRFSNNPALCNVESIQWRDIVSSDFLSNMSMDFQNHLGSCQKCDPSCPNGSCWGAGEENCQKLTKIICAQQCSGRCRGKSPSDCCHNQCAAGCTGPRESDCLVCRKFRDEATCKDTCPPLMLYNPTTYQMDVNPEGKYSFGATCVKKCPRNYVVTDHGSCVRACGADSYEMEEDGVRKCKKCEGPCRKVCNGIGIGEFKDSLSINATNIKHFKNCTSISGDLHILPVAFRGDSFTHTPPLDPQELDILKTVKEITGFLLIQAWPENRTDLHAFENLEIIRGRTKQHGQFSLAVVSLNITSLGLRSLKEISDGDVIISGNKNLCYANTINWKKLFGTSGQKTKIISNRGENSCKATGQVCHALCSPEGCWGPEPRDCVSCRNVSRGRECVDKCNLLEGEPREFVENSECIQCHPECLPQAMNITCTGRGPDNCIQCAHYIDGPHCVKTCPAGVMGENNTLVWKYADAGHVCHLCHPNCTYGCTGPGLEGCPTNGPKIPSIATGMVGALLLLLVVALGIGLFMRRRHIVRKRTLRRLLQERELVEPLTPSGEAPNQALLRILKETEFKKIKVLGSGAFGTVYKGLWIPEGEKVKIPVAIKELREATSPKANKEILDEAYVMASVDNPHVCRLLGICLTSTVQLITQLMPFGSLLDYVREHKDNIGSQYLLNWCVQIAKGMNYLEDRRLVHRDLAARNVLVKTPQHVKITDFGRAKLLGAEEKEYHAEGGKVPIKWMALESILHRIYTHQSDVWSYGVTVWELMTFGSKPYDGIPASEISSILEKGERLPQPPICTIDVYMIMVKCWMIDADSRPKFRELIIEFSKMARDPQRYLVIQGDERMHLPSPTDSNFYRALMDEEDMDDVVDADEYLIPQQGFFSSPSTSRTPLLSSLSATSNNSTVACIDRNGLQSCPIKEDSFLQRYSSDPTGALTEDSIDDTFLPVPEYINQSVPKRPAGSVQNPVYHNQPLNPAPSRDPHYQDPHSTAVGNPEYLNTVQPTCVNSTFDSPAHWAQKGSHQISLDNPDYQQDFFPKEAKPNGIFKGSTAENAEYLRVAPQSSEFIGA
ASSAY_SUMMARY: Inhibition of EGFR (C797S L858R) biochemical enzymatic activity (HTRF)
DETAILS: IC50 @L858-C797S, EGFR (C797S L858R), 1 mM ATP, 1 h at room temperature
Procedure: Biological Example 1: Inhibition of EGFR WT and Mutant Biochemical Enzymatic Activity The inhibition potency of compounds against these enzymes was assessed using Homogenous Time Resolved Fluorescence approach (HTRF, CisBio. Cat No. 62TKOPEJ). Inhibitory effects of the compounds were determined by measuring the enzymatic activity of EGFR enzyme phosphorylates 1 μM TK Substrate-biotin in the presence of 1 mM adenosine-5′-triphosphate (ATP) and varying concentrations of the test compound. […]
pIC50: −log10 of the molar value.
VALUE_TYPE: pIC50

P: Cc1cc2cc(n1)-c1cnn(C)c1OCCN1CC3CCC(C3)(C1)n1c(nc3ccc(N4CCC(N(C)C)CC4)cc31)NC2=O (single isomer, unassigned) [Example B40B]
Q: Cc1cc2cc(n1)-c1cnn(C)c1OCCCCCn1c(nc3ccc4c(c31)CCN(CCN(C)C)C4)NC2=O
Query: Return label of the item with the larger pIC50. Candidates: P , Q . Kindly give the label for the entry you pick.
Response: P

====

TARGET: EGFR L858R (Homo sapiens, UniProt P00533, L858R)
Construct: purchased Carna Bio
ASSAY_SUMMARY: Inhibition of EGFR L858R biochemical enzymatic activity (HTRF)
DETAILS: 1 mM ATP, 1 h, room temperature, read-out: IC50 (nM) @L858R
VALUE_TYPE: IC50 (nM)

Some solved cases for reference:
{"COMPOUND": "CN1CC2CN(c3ccc4nc5n(c4c3)C34CCC(CN(CCOc6c(cnn6C)-c6cc(cn(C)c6=O)C(=O)N5)C3)C4)CC2C1 (single isomer, unassigned) [Example A68B]", "IC50, nM": 2.9}
{"COMPOUND": "C[C@@H]1CCCOc2c(cnn2C)-c2cc(cn(C)c2=O)C(=O)Nc2nc3ccc(N4CC5(CN(C)C5)C4)cc3n2C1 [Example A40]", "IC50, nM": 11}
{"COMPOUND": "CN(C)[C@@H]1CCN(c2ccc3nc4n(c3c2)C23CCC(CC2)CN(CCOc2c(cnn2C)-c2cc(cn(C)c2=O)C(=O)N4)C3)C1 [Example A121]", "IC50, nM": 167}

1: CN(C)C1CN(c2ccc3nc4n(c3c2)C23CCC(CN(CCOc5c(cnn5C)-c5cc(cn(C)c5=O)C(=O)N4)C2)C3)CC1(F)F (single isomer, unassigned) [Example A99B]
2: Cn1ncc2c1OCCN1CC3CCC(C3)(C1)n1c(nc3ccccc31)NC(=O)c1cc-2c(=O)n(C)c1 (stereo not drawn) [Example A61B]
Query: Which gives the smaller IC50 number: 1 or 2 ? Kindly give the label for the entry you pick.
Response: 1

====

TARGET: EGFR L858R (Homo sapiens, UniProt P00533, L858R)
Construct: purchased Carna Bio
ASSAY_SUMMARY: Inhibition of EGFR L858R biochemical enzymatic activity (HTRF)
DETAILS: 1 mM ATP, 1 h, room temperature, read-out: IC50 (nM) @L858R
VALUE_TYPE: IC50 (nM)

A: CN1CCN(C2CN(c3ccc4nc5n(c4c3)C34CCC(CN(CCOc6c(cnn6C)-c6cc(cn(C)c6=O)C(=O)N5)C3)C4)C2)CC1 (single isomer, unassigned) [Example A70B]
B: CN1CC2CN(c3ccc4nc5n(c4c3)C34CCC(CC3)CN(CCOc3c(cnn3C)-c3cc(cn(C)c3=O)C(=O)N5)C4)CC2C1 (stereo not drawn) [Example A126]
C: Cn1ncc2c1OCCN1CC3CCC(C3)(C1)n1c(nc3ccc(N4CCN(C5CC5)CC4)cc31)NC(=O)c1cc-2c(=O)n(C)c1 (single isomer, unassigned) [Example A83A]
D: CN1CCC2(CCN(c3ccc4nc5n(c4c3)C34CCC(CN(CCOc6c(cnn6C)-c6cc(cn(C)c6=O)C(=O)N5)C3)C4)CC2)C1 (single isomer, unassigned) [Example A82A]
E: Cn1ncc2c1OCCN1CC3CCC(C3)(C1)n1c(nc3ccc(N4CCN(C5COC5)CC4)cc31)NC(=O)c1cc-2c(=O)n(C)c1 (single isomer, unassigned) [Example A71B]
Query: With the 5 compounds above, produce a list ordered by ascending IC50. Please list each label once, in the requested order.
Response: A, E, B, D, C
(A: 4.7 nM, E: 14 nM, B: 95 nM, D: 1210 nM, C: 2020 nM)

====

TARGET: EGFR[T790M/C797S/L858R] (Homo sapiens, UniProt P00533, C797S/L858R/T790M)
Construct: purchased Carna Bio
Sequence (P00533 25-1210 T790M/C797S/L858R): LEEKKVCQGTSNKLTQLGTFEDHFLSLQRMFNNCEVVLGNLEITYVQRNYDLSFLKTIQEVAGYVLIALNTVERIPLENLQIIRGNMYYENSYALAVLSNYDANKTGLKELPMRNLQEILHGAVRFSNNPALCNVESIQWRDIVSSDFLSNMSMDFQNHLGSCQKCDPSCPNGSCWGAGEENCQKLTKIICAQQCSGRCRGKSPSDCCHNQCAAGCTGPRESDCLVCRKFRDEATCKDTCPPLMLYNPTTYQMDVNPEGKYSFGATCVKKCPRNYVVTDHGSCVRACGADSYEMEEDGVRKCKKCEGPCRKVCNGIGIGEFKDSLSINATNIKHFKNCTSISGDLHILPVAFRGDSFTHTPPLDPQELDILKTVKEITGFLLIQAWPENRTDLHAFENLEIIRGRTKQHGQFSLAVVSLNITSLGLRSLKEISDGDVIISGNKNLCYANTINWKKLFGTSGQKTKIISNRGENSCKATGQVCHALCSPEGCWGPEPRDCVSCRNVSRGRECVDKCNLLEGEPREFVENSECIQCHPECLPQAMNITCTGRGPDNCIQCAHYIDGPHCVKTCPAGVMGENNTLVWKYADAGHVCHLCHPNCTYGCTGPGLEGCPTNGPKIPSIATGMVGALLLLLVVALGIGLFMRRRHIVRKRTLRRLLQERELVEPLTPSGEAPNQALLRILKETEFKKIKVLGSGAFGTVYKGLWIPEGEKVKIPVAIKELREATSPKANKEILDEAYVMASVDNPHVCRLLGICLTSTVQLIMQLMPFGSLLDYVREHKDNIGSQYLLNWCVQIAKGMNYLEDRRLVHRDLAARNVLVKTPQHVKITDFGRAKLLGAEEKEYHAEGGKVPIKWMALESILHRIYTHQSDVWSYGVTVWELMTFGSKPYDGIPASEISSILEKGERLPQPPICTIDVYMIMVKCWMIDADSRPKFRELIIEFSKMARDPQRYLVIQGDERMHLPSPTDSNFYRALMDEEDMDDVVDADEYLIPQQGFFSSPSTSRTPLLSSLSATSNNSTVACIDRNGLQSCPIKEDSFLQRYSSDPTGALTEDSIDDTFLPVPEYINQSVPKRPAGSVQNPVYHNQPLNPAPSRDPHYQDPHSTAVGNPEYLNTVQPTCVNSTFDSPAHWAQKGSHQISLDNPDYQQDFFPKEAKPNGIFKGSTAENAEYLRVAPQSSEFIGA
ASSAY_SUMMARY: Inhibition of EGFR[T790M/C797S/L858R] biochemical enzymatic activity (HTRF)
DETAILS: EGFR T790M-C797S-L858R, 1 mM ATP, 1 h, room temperature, read-out: IC50 (nM) @T790M- C797S - L858R
VALUE_TYPE: IC50 (nM)

{"MOLECULE": "C[C@@H]1CCCOc2c(cnn2C)-c2cc(cn(C)c2=O)C(=O)Nc2nc3ccc(Br)cc3n2C1 [Example M3]", "TARGET": "EGFR[T790M/C797S/L858R] (Homo sapiens, UniProt P00533, C797S/L858R/T790M)", "IC50, nM": 2470}

I: CN1CCN(c2ccc3nc4n(c3c2)C23CCC(CN(CCOc5c(cnn5C)-c5cc(cn(C)c5=O)C(=O)N4)C2)C3)CC1 (single isomer, unassigned) [Example A63B]
II: CN(C)[C@@H]1CCN(c2ccc3nc4n(c3c2)C23CCC(CC2)CN(CCOc2c(cnn2C)-c2cc(cn(C)c2=O)C(=O)N4)C3)C1 [Example A121]
Query: Return label of the item with the larger IC50. Candidates: I , II . Kindly give the label for the entry you pick.
Response: II

A: Cc1cc2cc(n1)-c1cnn(C)c1OCCN1CC3CCC(CC3)(C1)n1c(nc3ccccc31)NC2=O [Example B1]
B: Cn1ncc2c1OCCN1CC3CCC(C3)(C1)n1c(nc3ccc(N4CCC(N5CC(F)C5)C4)cc31)NC(=O)c1cc-2c(=O)n(C)c1 (single isomer, unassigned) [Example A94B1]
Query: Which gives the smaller IC50 number: A or B ? Kindly give the label for the entry you pick.
Response: B
(B: 5 nM, A: 23 nM)

1: C[C@@H]1CCCOc2c(cnn2C)-c2cc(cn(C)c2=O)C(=O)Nc2nc3ccc(N4CCN(CC(F)(F)F)CC4)cc3n2C1 [Example A53]
2: CN(C)CCCN(C)c1ccc2nc3n(c2c1)C12CCC(CC1)CN(CCOc1c(cnn1C)-c1cc(cn(C)c1=O)C(=O)N3)C2 [Example A125]
3: CN1CCN(C2CN(c3ccc4nc5n(c4c3)C34CCC(CN(CCOc6c(cnn6C)-c6cc(cn(C)c6=O)C(=O)N5)C3)C4)C2)CC1 (single isomer, unassigned) [Example A70B]
4: CN(C)C1CCN(c2ccc3nc4n(c3c2)C23CCC(CC2)CN(CCOc2c(cnn2C)-c2cc(cn(C)c2=O)C(=O)N4)C3)CC1 [Example A119]
Query: Please order the records by their reported IC50, lowest number first. Please list each label once, in the requested order.
Response: 3, 4, 1, 2
